Target: human 5-HT1A receptor (Homo sapiens (Human))
Assay: Test 2: agonist activity for human 5-HT1A receptor ([35S]GTPγS binding)
Settings: [35S]GTPγS binding; concentration at which half the activity of Emax was obtained
METRIC: EC50 (nM)
Response body: numeric value in nM, unit text excluded.

Asked: EC50 lookup needed for O=C1c2ncccc2CCN1CCN1CCC(c2noc3ccc(F)cc23)CC1 [Example 5] , thanks.
Given back: 91.6

Asked: Can you handle Cc1noc2c1C(=O)N(CCN1CCC(c3noc4ccccc34)CC1)CCC2 [Example 38] next?
Given back: 395

Asked: Queued: Cc1n[nH]c2c1C(=O)N(CCN1CCC(c3noc4ccccc34)CC1)CC2 [Example 99]
Given back: 185

Asked: Now the same for O=c1c2cnc(C(F)(F)F)cc2ccn1CCN1CCN(c2nsc3ccccc23)CC1 [Example 172]
Given back: 8.2

Asked: Now the same for O=C1c2ncccc2CCN1CCN1CCC(c2noc3cccc(F)c23)CC1 [Example 141]
Given back: 30

Asked: And Cn1cnc2c1CCN(CCN1CCC(c3noc4ccccc34)CC1)C2=O [Example 16] ?
Given back: 300

Asked: Okay, and Cn1cc2c(n1)CCCN(CCN1CCC(c3noc4ccccc34)CC1)C2=O [Example 41] ?
Given back: 79.3

Asked: What about this molecule? COc1ccc2onc(C3CCN(CCN4CCc5cccnc5C4=O)CC3)c2c1 [Example 142]
Given back: 8.8

Asked: What about Cn1ncc2c1CCN(CCN1CCN(c3noc4ccccc34)CC1)C2=O [Example 131] ?
Given back: 405

====

Target: human 5-HT1A receptor (Homo sapiens (Human), UniProt P08908)
Sequence (P08908 whole entry): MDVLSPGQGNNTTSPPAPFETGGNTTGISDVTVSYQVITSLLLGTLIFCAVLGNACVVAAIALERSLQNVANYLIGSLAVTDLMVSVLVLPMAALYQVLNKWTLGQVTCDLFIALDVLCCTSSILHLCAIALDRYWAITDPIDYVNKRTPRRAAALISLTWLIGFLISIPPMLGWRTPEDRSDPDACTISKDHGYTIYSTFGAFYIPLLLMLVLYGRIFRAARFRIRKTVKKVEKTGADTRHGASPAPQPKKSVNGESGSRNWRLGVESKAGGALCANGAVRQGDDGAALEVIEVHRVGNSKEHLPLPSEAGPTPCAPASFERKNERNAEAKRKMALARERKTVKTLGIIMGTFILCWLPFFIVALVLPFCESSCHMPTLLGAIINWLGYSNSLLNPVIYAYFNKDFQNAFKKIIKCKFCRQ
Assay: Test 2: agonist activity for human 5-HT1A receptor ([35S]GTPγS binding)
Type: biochemical
Conditions: agonist activity in the presence of 10 μM of compound, relative to 100 μmol/L 5-HT
Response field label: string, one of yes (1) (Emax at 10 µM strictly below 60%) or no (0).

Asked: Strictly below 60%: is that where Emax at 10 µM of CC(C)c1nc2c(o1)C(=O)N(CCN1CCN(c3nsc4ccccc34)CC1)CC2 [Example 66] sits?
Given back: no (0)

Asked: Same read-out for Cc1ncc2c(=O)n(CCN3CCN(c4nsc5ccccc45)CC3)ccc2n1 [Example 95] ?
Given back: no (0)

Asked: Request: Cn1cc2c(n1)C(=O)N(CCN1CCC(c3noc4ccccc34)CC1)CC2 [Example 156]
Given back: yes (1)

Asked: One more compound: O=C1c2cnccc2C2(CC2)CN1CCN1CCN(c2noc3ccccc23)CC1 [Example 136]
Given back: yes (1)

Asked: Now try CC1CN(CCN2CCN(c3nsc4ccccc34)CC2)C(=O)c2ccn(C)c21 (stereo not drawn) [Example 79] .
Given back: no (0)

Asked: Field entry: Cc1cc2c(C3CCN(CCN4CCc5cccnc5C4=O)CC3)noc2cc1F [Example 6]
Given back: yes (1)

Asked: Same question, O=c1c2cnc(C(F)(F)F)cc2ccn1CCN1CCN(c2nsc3ccccc23)CC1 [Example 172] this time
Given back: no (0)

Asked: Now try CCn1cc2c(n1)CCN(CCN1CCN(c3nsc4ccccc34)CC1)C2=O [Example 163] .
Given back: no (0)

====

Target: human D2 receptor (Homo sapiens (Human))
Sequence (P14416 whole entry): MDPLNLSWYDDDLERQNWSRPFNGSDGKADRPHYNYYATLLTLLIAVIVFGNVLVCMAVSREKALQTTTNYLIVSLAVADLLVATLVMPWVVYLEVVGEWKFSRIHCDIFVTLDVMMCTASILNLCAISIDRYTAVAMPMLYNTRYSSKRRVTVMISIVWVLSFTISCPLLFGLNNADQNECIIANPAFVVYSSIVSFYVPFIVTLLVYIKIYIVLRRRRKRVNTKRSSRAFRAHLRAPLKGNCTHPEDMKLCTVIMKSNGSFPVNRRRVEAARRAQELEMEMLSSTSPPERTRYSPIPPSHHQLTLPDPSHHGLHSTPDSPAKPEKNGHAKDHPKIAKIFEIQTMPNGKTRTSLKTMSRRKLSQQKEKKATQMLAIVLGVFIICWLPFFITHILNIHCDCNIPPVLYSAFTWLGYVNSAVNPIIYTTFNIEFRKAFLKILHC
Experiment: Test 1: binding activity for human D2 receptor ([3H]Spiperone, CHO cell membrane fraction)
Settings: human D2 receptor, [3H]Spiperone
pKi: −log10 of the molar value.
Class membership depends on pKi alone; the intervals are low end: < 5; middle: ≥ 5 and < 6; high end: ≥ 6

Asked: Each compound maps to one class by pKi. Which class for Cc1nc2c(o1)CCN(CCN1CCC(c3noc4ccccc34)CC1)C2=O [Example 39] ?
Given back: middle

Asked: Okay, and Cn1ccc2c1CCCN(CCN1CCC(c3noc4ccccc34)C1)C2=O (stereo not drawn) [Example 175] ?
Given back: middle

Asked: # repeat for Cn1ccc2c1CCCN(CCN1CCN(c3noc4ccccc34)CC1)C2=O [Example 109]
Given back: high end

Asked: Field entry: O=C1c2cn(-c3ccccc3)nc2CCN1CCN1CCN(c2nsc3ccccc23)CC1 [Example 168]
Given back: high end

Asked: Moving on to O=C1c2[nH]cnc2CCCN1CCN1CCN(c2nsc3ccccc23)CC1 [Example 100]
Given back: middle

Asked: What do you get for Cn1cnc2c1CCN(CCN1CCC(c3noc4ccccc34)CC1)C2=O [Example 16] ?
Given back: low end
